Reference for the values: patent US12084430B2

Study System: catalytic domain (JH1, amino acids 826-1132) of human JAK2 (Homo sapiens, UniProt O60674)
Construct: catalytic domain (JH1, amino acids 826-1132) of human JAK2; FLAG (N); biotin (biotinylated); purchased Carna Biosciences 08-445-20N; host or cells: baculovirus expression system
Sequence (O60674 826-1132): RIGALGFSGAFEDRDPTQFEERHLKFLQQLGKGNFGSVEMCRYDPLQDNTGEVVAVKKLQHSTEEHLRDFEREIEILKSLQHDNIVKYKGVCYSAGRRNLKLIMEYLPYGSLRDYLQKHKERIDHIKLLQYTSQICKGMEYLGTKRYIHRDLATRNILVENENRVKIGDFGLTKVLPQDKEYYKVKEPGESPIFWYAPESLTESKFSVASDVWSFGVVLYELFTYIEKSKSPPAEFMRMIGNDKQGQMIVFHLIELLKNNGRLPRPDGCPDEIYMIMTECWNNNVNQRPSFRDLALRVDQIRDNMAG
Assay Overview: JAK2 LanthaScreen JH1 binding assay
Condition Summary: Table A; read-out: JH1 Bind IC50
pIC50: −log10 of the molar value.
As shown below, each of these compounds has a reported pIC50 value.

- Smiles Text: "COC(=O)N[C@@H]1CC[C@@H](n2c(=O)n(C)c3cnc4[nH]c(-c5cn(C)nc5OC)c(-c5ccc(F)cc5)c4c32)C1"
  pIC50: "< 6.00"
- Smiles Text: "[2H]C([2H])([2H])n1cc(-c2[nH]c3ncc4c(c3c2-c2ccc3c(c2)COC3(C)C)n([C@@H]2CC[C@@H](NC(=O)OC)C2)c(=O)n4C([2H])([2H])[2H])c(F)n1"
  pIC50: "< 6.00"
- Smiles Text: "[2H]C([2H])([2H])n1c(=O)n([C@@H]2CC[C@@H](NC(=O)OC)C2)c2c3c(-c4ccc5c(c4)COC5(C)C)c(-c4cn(C([2H])([2H])C([2H])([2H])[2H])nc4F)[nH]c3ncc21"
  pIC50: "< 6.00"
- Smiles Text: "COC(=O)N[C@@H]1CC[C@@H](n2c(=O)n(C)c3cnc4[nH]c(-c5cn(C)nc5OC)c(-c5ccc(OC)c(F)c5)c4c32)C1"
  pIC50: "< 6.00"
- Smiles Text: "[2H]C([2H])([2H])n1cc(-c2[nH]c3ncc4c(c3c2-c2ccc3c(cnn3CC(F)F)c2)n([C@@H]2CC[C@@H](NC(=O)OC)C2)c(=O)n4C)c(F)n1"
  pIC50: "< 6.00"

---

Study System: FLT3 (Homo sapiens, UniProt P36888)
Parameter: IC50

- Smiles Text: "[2H]C([2H])([2H])n1cc(-c2[nH]c3ncc4c(c3c2-c2cc(F)c3c(cnn3C([2H])([2H])[2H])c2)n([C@@H]2CC[C@@H](NC(=O)OC)C2)c(=O)n4C([2H])([2H])[2H])c(F)n1"
  Result: "1.25 to 2.5 µM"
- Smiles Text: "[2H]C([2H])([2H])n1cc(-c2[nH]c3ncc4c(c3c2-c2ccc(F)cc2)n([C@@H]2CC[C@@H](NC(=O)OC)C2)c(=O)n4C([2H])([2H])[2H])c(F)n1"
  Result: "> 2.5 µM"
- Smiles Text: "[2H]C([2H])([2H])n1cc(-c2[nH]c3ncc4c(c3c2-c2ccc3c(cnn3C([2H])([2H])[2H])c2)n([C@@H]2CC[C@@H](NC(=O)OC)C2)c(=O)n4C([2H])([2H])[2H])c(F)n1"
  Result: "1.25 to 2.5 µM"
- Smiles Text: "[2H]C([2H])([2H])n1cc(-c2[nH]c3ncc4c(c3c2-c2ccc3c(cnn3CC(F)F)c2)n([C@@H]2CC[C@@H](NC(=O)OC)C2)c(=O)n4C([2H])([2H])[2H])c(F)n1"
  Result: "1.25 to 2.5 µM"
- Smiles Text: "[2H]C([2H])([2H])n1cc(-c2[nH]c3ncc4c(c3c2-c2ccc3c(cnn3CC(F)F)c2)n([C@@H]2CC[C@@H](NC(=O)OC)C2)c(=O)n4C)c(F)n1"
  Result: "1.25 to 2.5 µM"

---

Please consider the recorded IC50 for TRKA (Homo sapiens, UniProt P04629) in what follows.
Parameter: IC50

- Smiles Text: "[2H]C([2H])([2H])n1cc(-c2[nH]c3ncc4c(c3c2-c2ccc3c(cnn3CC(F)F)c2)n([C@@H]2CC[C@@H](NC(=O)OC)C2)c(=O)n4C([2H])([2H])[2H])c(F)n1"
  Result: "> 2500 nM"
- Smiles Text: "COC(=O)N[C@@H]1CC[C@@H](n2c(=O)n(C)c3cnc4[nH]c(-c5cn(C)nc5OC)c(-c5cccc(F)c5)c4c32)C1"
  Result: "1250 to 2500 nM"
- Smiles Text: "COC(=O)N[C@@H]1CC[C@@H](n2c(=O)n(C)c3cnc4[nH]c(-c5cn(C)nc5OC)c(-c5ccccc5)c4c32)C1"
  Result: "> 2500 nM"
- Smiles Text: "[2H]C([2H])([2H])n1ncc2cc(-c3c(-c4cn(C([2H])([2H])C([2H])([2H])[2H])nc4F)[nH]c4ncc5c(c34)n([C@@H]3CC[C@@H](NC(=O)OC)C3)c(=O)n5C([2H])([2H])[2H])ccc21"
  Result: "1250 to 2500 nM"

---

Study System: FLT3 (Homo sapiens, UniProt P36888)
Sequence (P36888 27-993): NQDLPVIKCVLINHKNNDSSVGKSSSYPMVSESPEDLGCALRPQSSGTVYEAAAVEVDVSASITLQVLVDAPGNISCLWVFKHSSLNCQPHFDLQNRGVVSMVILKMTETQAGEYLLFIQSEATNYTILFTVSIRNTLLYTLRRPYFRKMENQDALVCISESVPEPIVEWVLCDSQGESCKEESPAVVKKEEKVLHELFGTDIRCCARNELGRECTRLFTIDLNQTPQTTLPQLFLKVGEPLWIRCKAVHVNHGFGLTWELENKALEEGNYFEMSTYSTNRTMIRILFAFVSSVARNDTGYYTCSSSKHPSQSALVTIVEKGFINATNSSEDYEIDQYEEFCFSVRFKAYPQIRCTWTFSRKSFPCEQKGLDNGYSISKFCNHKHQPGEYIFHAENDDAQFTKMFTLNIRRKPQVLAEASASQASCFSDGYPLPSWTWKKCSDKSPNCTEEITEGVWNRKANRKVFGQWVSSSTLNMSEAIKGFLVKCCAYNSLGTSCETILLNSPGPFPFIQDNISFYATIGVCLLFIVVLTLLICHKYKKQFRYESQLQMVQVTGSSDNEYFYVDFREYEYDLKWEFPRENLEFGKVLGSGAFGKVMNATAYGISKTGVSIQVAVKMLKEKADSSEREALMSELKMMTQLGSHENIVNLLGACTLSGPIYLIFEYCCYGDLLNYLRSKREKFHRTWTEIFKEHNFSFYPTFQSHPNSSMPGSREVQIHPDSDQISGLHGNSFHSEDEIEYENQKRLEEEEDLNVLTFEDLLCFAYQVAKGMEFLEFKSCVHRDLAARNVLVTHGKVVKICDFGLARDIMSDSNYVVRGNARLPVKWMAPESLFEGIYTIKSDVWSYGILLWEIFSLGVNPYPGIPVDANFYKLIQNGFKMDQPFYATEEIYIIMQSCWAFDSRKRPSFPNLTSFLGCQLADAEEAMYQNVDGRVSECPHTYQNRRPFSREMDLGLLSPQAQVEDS
Parameter: IC50

- Smiles Text: "[2H]C([2H])([2H])n1c(=O)n([C@@H]2CC[C@@H](NC(=O)OC)C2)c2c3c(-c4ccc5c(c4)COC5(C)C)c(-c4cn(C([2H])([2H])C([2H])([2H])[2H])nc4F)[nH]c3ncc21"
  Result: "> 2500 nM"
- Smiles Text: "[2H]C([2H])([2H])n1c(=O)n([C@@H]2CC[C@@H](NC(=O)OC)C2)c2c3c(-c4ccc5c(c4)COC5(C)C)c(-c4cn(CC)nc4F)[nH]c3ncc21"
  Result: "> 2500 nM"
- Smiles Text: "[2H]C([2H])([2H])n1ncc2cc(-c3c(-c4cn(C)nc4OC)[nH]c4ncc5c(c34)n([C@@H]3CC[C@@H](NC(=O)OC)C3)c(=O)n5C)ccc21"
  Result: "1250 to 2500 nM"
- Smiles Text: "[2H]C([2H])([2H])n1ncc2cc(-c3c(-c4cn(C([2H])([2H])C([2H])([2H])[2H])nc4F)[nH]c4ncc5c(c34)n([C@@H]3CC[C@@H](NC(=O)OC)C3)c(=O)n5C([2H])([2H])[2H])ccc21"
  Result: "250 to 1250 nM"
- Smiles Text: "COC(=O)N[C@@H]1CC[C@@H](n2c(=O)n(C)c3cnc4[nH]c(-c5cn(C)nc5OC)c(-c5ccc(OC)c(F)c5)c4c32)C1"
  Result: "> 2500 nM"

---

As shown below, each of these compounds has a reported pIC50 value.
Study System: KIT (Homo sapiens, UniProt P10721)
Sequence (P10721 26-976, species assumed): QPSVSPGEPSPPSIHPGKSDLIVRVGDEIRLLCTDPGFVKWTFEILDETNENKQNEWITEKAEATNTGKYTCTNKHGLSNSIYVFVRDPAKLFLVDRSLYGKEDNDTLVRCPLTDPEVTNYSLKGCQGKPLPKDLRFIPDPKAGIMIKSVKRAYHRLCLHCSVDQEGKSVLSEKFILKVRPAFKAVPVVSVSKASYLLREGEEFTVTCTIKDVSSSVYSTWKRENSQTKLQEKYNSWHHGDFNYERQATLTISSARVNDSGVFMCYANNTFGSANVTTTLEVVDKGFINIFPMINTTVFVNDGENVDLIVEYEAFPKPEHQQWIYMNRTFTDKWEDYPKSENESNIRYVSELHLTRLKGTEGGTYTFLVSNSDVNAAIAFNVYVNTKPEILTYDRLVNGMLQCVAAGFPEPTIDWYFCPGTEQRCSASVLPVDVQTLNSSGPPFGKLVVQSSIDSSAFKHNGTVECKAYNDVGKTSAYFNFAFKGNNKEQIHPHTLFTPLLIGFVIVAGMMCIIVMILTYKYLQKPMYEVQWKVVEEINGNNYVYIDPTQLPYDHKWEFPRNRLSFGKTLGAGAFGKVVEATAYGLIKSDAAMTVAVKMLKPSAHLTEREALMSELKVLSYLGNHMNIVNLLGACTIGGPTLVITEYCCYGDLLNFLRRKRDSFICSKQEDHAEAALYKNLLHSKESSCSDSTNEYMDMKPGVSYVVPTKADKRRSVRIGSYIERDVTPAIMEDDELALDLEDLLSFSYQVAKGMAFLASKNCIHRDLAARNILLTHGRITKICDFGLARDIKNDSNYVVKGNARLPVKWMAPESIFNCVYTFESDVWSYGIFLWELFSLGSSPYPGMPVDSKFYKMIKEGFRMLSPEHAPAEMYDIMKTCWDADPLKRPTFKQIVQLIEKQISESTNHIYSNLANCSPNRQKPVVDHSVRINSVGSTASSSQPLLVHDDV
pIC50: −log10 of the molar value.

- Compound: "COC(=O)N[C@@H]1CC[C@@H](n2c(=O)n(C)c3cnc4[nH]c(-c5cn(C)nc5OC)c(-c5ccc(OC)c(F)c5)c4c32)C1 [Example 4]"
  pIC50: "< 5.60"
- Compound: "[2H]C([2H])([2H])n1cc(-c2[nH]c3ncc4c(c3c2-c2ccc3c(cnn3C(C)C)c2)n([C@@H]2CC[C@@H](NC(=O)OC)C2)c(=O)n4C([2H])([2H])[2H])c(F)n1 [Example 13]"
  pIC50: "5.90 to 6.60"
- Compound: "COC(=O)N[C@@H]1CC[C@@H](n2c(=O)n(C)c3cnc4[nH]c(-c5cn(C)nc5OC)c(-c5ccc(F)cc5)c4c32)C1 [Example 1]"
  pIC50: "< 5.60"
- Compound: "[2H]C([2H])([2H])n1cc(-c2[nH]c3ncc4c(c3c2-c2ccc(F)cc2)n([C@@H]2CC[C@@H](NC(=O)OC)C2)c(=O)n4C([2H])([2H])[2H])c(F)n1 [Example 7]"
  pIC50: "5.90 to 6.60"
- Compound: "[2H]C([2H])([2H])n1ncc2cc(-c3c(-c4cn(C)nc4OC)[nH]c4ncc5c(c34)n([C@@H]3CC[C@@H](NC(=O)OC)C3)c(=O)n5C)ccc21 [Example 5]"
  pIC50: "< 5.60"
